- Experiment: NFAT Signaling Pathway (AID 444);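 further: carbachol stimulus at about its EC50 of 1 µM final; on the % scale 0 is the no-effect control and ±100 the full control effect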
- Assay Conditions: Jurkat NFAT-bla M1, carbachol, beta-lactamase ratio, 5 h; at 17.2 µM (top of the series) unless noted
Results filed as inconclusive are left out. Active and inactive are the calls of the source. The call rests on the fitted dose curve; in most records, active means well fitted curve in either direction with a large enough effect (not every such curve was filed as active); inconclusive means small, poorly fitted or top-dose-only effect, or another doubt; inactive means flat fitted curve, though single readings scatter.
Measured Endpoint: activity change, negative = inhibition

Task item: Assign activity change, negative = inhibition to the following record: COc1ccc(/C(O)=C2/C(=O)C(=O)N(CCN3CCOCC3)C2c2ccccn2)cc1 (configuration not stated)
Reply: 6.7% (inactive)

Task item: Assign activity change, negative = inhibition to the following record: O=C(Oc1ccccc1)c1c(Cl)cccc1P(=O)(O)O
Reply: 2.02% (inactive)

Task item: Assign activity change, negative = inhibition to the following record: COc1ccc(OCC(=O)N2CCN(C(=O)c3cccc4ccccc34)CC2)cc1
Reply: 5.36% (inactive)

Task item: Assign activity change, negative = inhibition to the following record: O=C(O)C1[C@H]2C(=O)N(Cc3cccs3)C[C@]23C=C[C@H]1O3 (some centres not stated)
Reply: -3.3% (inactive)

Task item: Assign activity change, negative = inhibition to the following record: CC1(C)Cc2c(c(-c3ccccc3)nc(N3CCCC3)c2C(N)=O)CO1
Reply: -18.8% (inactive)

Task item: Assign activity change, negative = inhibition to the following record: CC1(C)Cc2c(sc3c2C(=O)N(c2ccccc2)C2=NCCCN23)CO1
Reply: -14.6% (inactive)

Task item: Assign activity change, negative = inhibition to the following record: CN(C)c1nc(OCCOC(=O)Nc2ccc(Cl)cc2Cl)nc(N(C)C)n1
Reply: -3.72% (inactive)

Task item: Assign activity change, negative = inhibition to the following record: C=CCn1c(SCc2c(F)c(F)c(F)c(F)c2F)nc(O)cc1=O
Reply: 25.9% (inactive)

Task item: Assign activity change, negative = inhibition to the following record: CC(=O)O[C@@H]1C[C@]2(C)[C@H](C[C@@H](O)[C@H]3[C@@]4(C)CC[C@@H](O)[C@@H](C)[C@@H]4CC[C@@]32C)/C1=C(\CCC=C(C)C)C(=O)O
Reply: -0.766% [at 38 µM] (inactive)

Task item: Assign activity change, negative = inhibition to the following record: CSc1ccccc1NC(=O)c1c(Br)cnn1C
Reply: -10.8% (inactive)

Task item: Assign activity change, negative = inhibition to the following record: COc1ccc(CCCNC(=O)CC#N)cc1OC
Reply: -4.61% (inactive)

Task item: Assign activity change, negative = inhibition to the following record: COc1ccc(C2=Nn3c(nnc3-c3cccnc3)SC2)cc1OC
Reply: -23% (inactive)

Task item: Assign activity change, negative = inhibition to the following record: CCOc1ccc(/C(O)=C2/C(=O)C(=O)N(CCN(CC)CC)C2c2ccco2)cc1 (configuration not stated)
Reply: -3.29% (inactive)

Task item: Assign activity change, negative = inhibition to the following record: O=C(O)C1CSC(CCc2ccccc2)N1 (configuration not stated)
Reply: -1.74% (inactive)

Task item: Assign activity change, negative = inhibition to the following record: O=C(Nc1nc(=O)c2ccccc2s1)c1ccccc1
Reply: -15.9% (inactive)

Task item: Assign activity change, negative = inhibition to the following record: C=CCOC(=O)C1=C(C)OC(N)=C(C#N)C1c1ccoc1 (configuration not stated)
Reply: -14.1% (inactive)

Task item: Assign activity change, negative = inhibition to the following record: Nc1ccc2c3c(cccc13)CC2
Reply: 11.5% (inactive)

Task item: Assign activity change, negative = inhibition to the following record: C=C(C)CC1N(c2cccc(OC)c2)C(=O)[C@@H]2C(C(=O)O)[C@H]3C=C[C@@]12O3 (some centres not stated)
Reply: 5.5% (inactive)

Task item: Assign activity change, negative = inhibition to the following record: Cn1c(N)c(C#N)c(C#N)c1-c1ccccc1
Reply: 4.54% (inactive)

Task item: Assign activity change, negative = inhibition to the following record: CCC(NC(=O)Nc1cc(OC)c(OC)c(OC)c1)(C(F)(F)F)C(F)(F)F
Reply: 14.9% (inactive)

Task item: Assign activity change, negative = inhibition to the following record: COc1ccc(/C(O)=C2/C(=O)C(=O)N(CCCN(C)C)C2c2ccccc2)cc1OC (configuration not stated)
Reply: -0.461% (inactive)

Task item: Assign activity change, negative = inhibition to the following record: OCCNC1=NCCN1
Reply: 3.37% (inactive)

Hello, the source for this data is PubChem BioAssay (NCATS), in case you need it.
